Readings of pIC50 for the listed compounds
- Tested on: microfilariae of Dirofilaria immitis
- assay-remarks: Dirofilaria immitis, Microfilaria (DiMF) Assay
- Format: cell-based
- settings: read-out: D. immitis activity level (IC50 or MED)
pIC50: −log10 of the molar value.
metric-name: pIC50

[
  {
    "smiles-record": "CC(C)Oc1ccc(-c2nsc(Nc3ncccc3C(=O)N3CCCC3)n2)nc1",
    "assay-result": "5.30 to 6.30"
  },
  {
    "smiles-record": "Cc1cccnc1Nc1nc(-c2ccc(OC3CCOCC3)cn2)ns1",
    "assay-result": "5.30 to 6.30"
  },
  {
    "smiles-record": "CC(=O)N1CCc2cc(-c3nsc(Nc4ncccc4C(F)(F)F)n3)ncc21",
    "assay-result": "6.30 to 6.70"
  },
  {
    "smiles-record": "CN(C)c1cccnc1Nc1nc(-c2ccc(OC3CC3)cn2)ns1",
    "assay-result": "5.30 to 6.30"
  },
  {
    "smiles-record": "CC(C)c1cccnc1Nc1nc(-c2ccc(O[C@@H]3CCN(C4CC4)C[C@@H]3F)cn2)ns1",
    "assay-result": "> 6.70"
  }
]
